# assay.text: NCI Yeast Anticancer Drug Screen. Data for the rad50 strain (AID 155);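 note: 0% = growth of vehicle-only cultures of the same strain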
# reported.conditions: S. cerevisiae rad50 strain growth inhibition; at 1.2 µM; stronger effect = higher value
The panel holds about 79,000 compounds, 15% with a hit somewhere; the sample as a whole holds those more often.
Items are presented alongside their recorded growth inhibition.
recorded.endpoint: growth inhibition (%)

>>> endpoint_value("COC(=N)c1ccc(O)c(C)c1")
-7
>>> endpoint_value("c1c[nH]c(CN2CCN(Cc3ncc[nH]3)CC2)n1")
4
>>> endpoint_value("O=P(C(=S)Nc1c(Cl)cccc1Cl)(c1ccccc1)c1ccccc1")
20
>>> endpoint_value("O=[N+]([O-])c1ccc(C(c2c[nH]c3ccccc23)c2c[nH]c3ccccc23)cc1")
84
>>> endpoint_value("COc1cc(C(=O)C=O)cc(OC)c1OC")
0
>>> endpoint_value("Cc1cc2nc3ccccc3n2c2ccccc12")
2
>>> endpoint_value("CCOc1ccc2nc3ccccc3c(N)c2c1")
7
>>> endpoint_value("O=c1[nH]c2c([N+](=O)[O-])cccc2c2ccccc12")
2
>>> endpoint_value("O=C1C(/C=C/c2ccc(Cl)cc2)=NNC2N1N=C1NC(=O)C3(NN12)c1ccccc1-c1ccccc13 (configuration not stated)")
-7
>>> endpoint_value("CCC(C)COC(=O)Nc1cccc(Cl)c1 (configuration not stated)")
9
>>> endpoint_value("NCCCSc1ccccc1")
-3
>>> endpoint_value("COc1ccc(C(C)c2cc3c(cc2OC(C)O)OCO3)cc1 (configuration not stated)")
-6
>>> endpoint_value("Cc1ccnc2c(O)cccc12")
6
>>> endpoint_value("CCCN=Cc1cc(Cc2ccc(O)c(C=NCCC)c2)ccc1O")
70
>>> endpoint_value("CC1(C)CC(=O)C(/C=N/c2nc(-c3ccc(Br)cc3)cs2)=C(O)C1")
3
>>> endpoint_value("CC1(C)OC(=O)C(=Cc2ccc([N+](=O)[O-])s2)C(=O)O1")
-9
>>> endpoint_value("ClCCCOc1c(Cl)cc(Cl)cc1Cl")
-2
>>> endpoint_value("COc1ccc2c3c1OC(C)C31CC(=O)CCC1CC2 (configuration not stated)")
-2
>>> endpoint_value("COc1ccc2c(c1)CCCC(Br)C2=O (configuration not stated)")
30
>>> endpoint_value("COC(=O)C(Cl)(Cl)N=Nc1c(Cl)cc(Cl)c(C)c1Cl")
-34
>>> endpoint_value("Nc1cccc(-c2cc[cH-]c2)c1.[Fe+2].c1cc[cH-]c1")
-3
>>> endpoint_value("N#[N+]c1c([O-])c2ccccc2c2ccccc12")
22
